We begin with a simple list: items and their reported % displacement at 10 nM.
- Experimental Target: human cloned somatostatin receptor 3 (human) (UniProt P32745)
- Sequence (P32745 whole entry): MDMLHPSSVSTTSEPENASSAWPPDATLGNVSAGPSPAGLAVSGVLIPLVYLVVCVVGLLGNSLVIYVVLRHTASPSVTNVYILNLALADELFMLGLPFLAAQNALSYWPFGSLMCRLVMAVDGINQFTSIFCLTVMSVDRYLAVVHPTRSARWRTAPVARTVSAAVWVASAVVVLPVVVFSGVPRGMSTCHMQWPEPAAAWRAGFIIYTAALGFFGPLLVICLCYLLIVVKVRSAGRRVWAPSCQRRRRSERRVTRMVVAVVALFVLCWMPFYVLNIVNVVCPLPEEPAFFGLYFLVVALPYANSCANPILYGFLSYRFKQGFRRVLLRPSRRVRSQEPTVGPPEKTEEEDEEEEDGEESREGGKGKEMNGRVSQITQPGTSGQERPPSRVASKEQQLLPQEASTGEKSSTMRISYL
- Assay Explanation: 125I-Tyr11-SRIF-14 displacement
*1 amine or outer side, *2 acyl side, *3 side chain or, on linkers, in order; H or OH if unused. Bridges are numbered along the chain shown (N, C = ends). [ ]: non-standard residue; d: D form. The star is where a group is joined. DOTA = O=C(O)CN1CCN(CC(=O)O)CCN(CC(=O)*)CCN(CC(=O)O)CC1; N(2-mercaptoethyl)Gly = O=C(CN(CCS[*:3])[*:1])[*:2]; Glutaryl = O=C(CCCC(=O)[*:2])[*:1]; NTEG = not defined here; Aoc = NCCCCCCCC(=O)O

{"Binder": "H-XRCF[dW]KTY[N(2-mercaptoethyl)Gly]-NH2 (disulfide 3-9; not fully specified (residue 1); printed as H-Phe1-Arg2-Cys3-Phe4-D-Trp5-Lys6-Thr7-Tyr8-NTEG9-NH2 (cyclo 3-9)) [SEQ ID NO: 26]", "Unit String": "%", "% displacement at 10 nM": 86}
{"Binder": "{Niraparib-Glutaryl}-[dF]RCF[dW]KTF[N(2-mercaptoethyl)Gly]-NH2 (disulfide 3-9) [SEQ ID NO: 28]", "Unit String": "%", "% displacement at 10 nM": 79}
{"Binder": "{DOTA}-[dF]KCF[dW]KTF[N(2-mercaptoethyl)Gly]-NH2 (disulfide 3-9; SMILES C[C@@H](O)[C@@H]1NC(=O)[C@H](CCCCN)NC(=O)[C@@H](Cc2c[nH]c3ccccc23)NC(=O)[C@H](Cc2ccccc2)NC(=O)[C@@H](NC(=O)[C@H](CCCCN)NC(=O)[C@@H](Cc2ccccc2)NC(=O)CN2CCN(CC(=O)O)CCN(CC(=O)O)CCN(CC(=O)O)CC2)CSSCCN(CC(N)=O)C(=O)[C@H](Cc2ccccc2)NC1=O) [SEQ ID NO: 9]", "Unit String": "%", "% displacement at 10 nM": 91}
{"Binder": "{DOTA-Aoc}-[dF]RCF[dW]KTF[N(2-mercaptoethyl)Gly]-NH2 (disulfide 3-9) [SEQ ID NO: 15]", "Unit String": "%", "% displacement at 10 nM": 87}
{"Binder": "{DOTA}-[dF]KCF[dW]KTF[NTEG]-NH2 (disulfide 3-9; reading uncertain; also: Ga chelated by DOTA) [SEQ ID NO: 10]", "Unit String": "%", "% displacement at 10 nM": 75}
